# measurement-target: 9H4 IgG
# assay-remarks: SPR competition binding assay, mAb 9H4
# details: SPR competition assay (Biacore T200); 3D7 MSP2 immobilised on CM5 chip; eight three-fold dilutions of peptide from 10 µM with 50 nM 9H4 IgG; alanine scan of 16-residue MSP2_207–222; read-out: Kd against 9H4 IgG
pKd: −log10 of the molar value. Where a SMILES comes first, the peptide text is derived from it. Bridges are numbered along the chain shown (N, C = ends).
pKd values, listed per item
observed-property: pKd

{"compound": "CC(=O)N[C@@H](CO)C(=O)N[C@@H](CCC(N)=O)C(=O)N[C@@H](CCCCN)C(=O)N[C@@H](C)C(=O)N[C@H]1CSSC[C@@H](C(=O)NCC(=O)N[C@@H](C)C(=O)N[C@@H](C)C(N)=O)NC(=O)[C@H](CC(N)=O)NC(=O)[C@H](CCC(=O)O)NC(=O)[C@H](CCCCN)NC(=O)[C@H](CC(N)=O)NC(=O)CNC(=O)[C@H](CC(=O)O)NC(=O)[C@H]([C@@H](C)O)NC1=O [Peptide E210A] (Ac-SQKACTDGNKENCGAA-NH2; disulfide 5-13)", "reading": 5.85}
{"compound": "CC(=O)N[C@@H](CO)C(=O)N[C@@H](CCC(N)=O)C(=O)N[C@@H](CCCCN)C(=O)N[C@@H](CCC(=O)O)C(=O)N[C@H]1CSSC[C@@H](C(=O)N[C@@H](C)C(=O)N[C@@H](C)C(=O)N[C@@H](C)C(N)=O)NC(=O)[C@H](CC(N)=O)NC(=O)[C@H](CCC(=O)O)NC(=O)[C@H](CCCCN)NC(=O)[C@H](CC(N)=O)NC(=O)CNC(=O)[C@H](CC(=O)O)NC(=O)[C@H]([C@@H](C)O)NC1=O [Peptide G220A] (Ac-SQKECTDGNKENCAAA-NH2; disulfide 5-13)", "reading": 5.54}
